Tested on: hTERT-HMEC;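 note: secreted proteins added to cultured cells, EdU pulse at the end, nuclei found by Hoechst imaging, EdU status from nuclear versus surrounding ring intensity ratio, PBS as neutral control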
protocol_description: percentage of EdU-negative (G0-arrested) nuclei per well, 72 h; higher = more G0 arrest
condition_parameters: protein concentration 0.0225 µM; reference: sequence is the full UniProt precursor, the tested protein was the secreted form or ectodomain
recorded_endpoint: percentage of EdU-negative (%)

sequence	obs_value
MWDLVLSIALSVGCTGAVPLIQSRIVGGWECEKHSQPWQVAVYSHGWAHCGGVLVHPQWVLTAAHCLKKNSQVWLGRHNLFEPEDTGQRVPVSHSFPHPLYNMSLLKHQSLRPDEDSSHDLMLLRLSEPAKITDVVKVLGLPTQEPALGTTCYASGWGSIEPEEFLRPRSLQCVSLHLLSNDMCARAYSEKVTEFMLCAGLWTGGKDTCGGDSGGPLVCNGVLQGITSWGPEPCALPEKPAVYTKVVHYRKWIKDTIAANP	4.38
MRRASRDYTKYLRGSEEMGGGPGAPHEGPLHAPPPPAPHQPPAASRSMFVALLGLGLGQVVCSVALFFYFRAQMDPNRISEDGTHCIYRILRLHENADFQDTTLESQDTKLIPDSCRRIKQAFQGAVQKELQHIVGSQHIRAEKAMVDGSWLDLAKRSKLEAQPFAHLTINATDIPSGSHKVSLSSWYHDRGWAKISNMTFSNGKLIVNQDGFYYLYANICFRHHETSGDLATEYLQLMVYVTKTSIKIPSSHTLMKGGSTKYWSGNSEFHFYSINVGGFFKLRSGEEISIEVSNPSLLDPDQDATYFGAFKVRDID	4.57
MGCRAASGLLPGVAVVLLLLLQSTQSVYIQYQGFRVQLESMKKLSDLEAQWAPSPRLQAQSLLPAVCHHPALPQDLQPVCASQEASSIFKTLRTIANDDCELCVNVACTGCL	4.91
